Reference source for all entries: patent EP4725969A1

target: T1, recombinant human HER2 extracellular domain protein (human, UniProt P04626 23-652); assay: BLI, Protein A capture
T1 construct: range 23-652; Range is printed for the immunogen/panning protein; also called ErbB2; recombinant HER2 protein
ASSAY METRIC: koff (s⁻¹)
Only the number, expressed in s⁻¹, is required.

Endpoint output: koff of 2126-Hu-H40 (antibody, IgG1, V domains shown, IgG1/Cκ) VH: QVQLVQSGSELKKPGASVKVSCKASGYTFTDYSMHWVRQAPGQGLEWMGWINTETGEPTYADDFKGRFVFSRDTSVSTAYLQISSLKAEDTAVYFCVRVGRYDYAMDYWGQGTTVTVSS VL: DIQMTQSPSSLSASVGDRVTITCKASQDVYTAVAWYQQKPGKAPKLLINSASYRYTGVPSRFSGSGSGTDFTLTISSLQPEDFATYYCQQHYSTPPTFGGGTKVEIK . Value? 0.0002
